Test system: OVCAR-5 ovarian
assay text: NCI tumour cell line growth inhibition, 48 h; in the data active means GI50 below about 0.43 µM; inactive means the rest
Entry note: the call must match one of yes (1) for active, no (0) for inactive

Query: How did this test come out for "Clc1nc(Cl)c2ncn(Cc3ccc(COc4cccc(OCc5ccc(Cn6cnc7c(Cl)nc(Cl)nc76)cc5)c4)cc3)c2n1" ?
Result: no (0)

Query: Proceed to CC(=O)O[C@@H]1CC2C(C)(C)CCCC2(C)C2=C1C(=O)C(C(C)C)=CC2=O (some centres not stated)
Result: no (0)

Query: Proceed to "C[C@@H]1CN(CC(=O)N2CC(C)(C)c3nc(CO)c(Cc4ccc(F)cc4)cc32)[C@@H](CN2CCOC[C@H]2C)CN1"
Result: no (0)

Query: Proceed to COC(=O)CNC(=O)[C@@H](OC)[C@@H]1Cc2cc3cc(OC4CC(OC5CC(O)C(O)C(C)O5)C(O)C(C)O4)c(C)c(O)c3c(O)c2C(=O)[C@H]1OC1CC(OC2CC(OC3CC(C)(O)C(O)C(C)O3)C(O)C(C)O2)C(O)C(C)O1 (some centres not stated)
Result: yes (1)

Query: Proceed to "CCN(Cc1ccccc1OC)c1ccc(CO)c(Cl)c1"
Result: yes (1)

Query: Proceed to COc1c(N2CCN(CN3C(=O)C(=Nc4ccc(S(=O)(=O)Nc5ncccn5)cc4)c4ccccc43)C(C)C2)c(F)cc2c(=O)c(C(=O)O)cn(C3CC3)c12 (configuration not stated)
Result: no (0)

Query: Proceed to "Nc1cc(N)c(N)cc1N"
Result: no (0)

---

System: EKVX NSCLC
assay text: NCI tumour cell line growth inhibition, 48 h
endpoint label: GI50

Query: Looking for the measured GI50 of "C[C@@H]1CN(CC(=O)N2CC(C)(C)c3nc(CO)c(Cc4ccc(F)cc4)cc32)[C@@H](CN2CCOC[C@H]2C)CN1" , can you help?
Result: 96.7 µM

Query: Proceed to "c1cnc2[nH]cc(-c3csc(-c4cn(CCCCN5CCOCC5)c5ccccc45)n3)c2c1"
Result: 2.07 µM

Query: Proceed to "Clc1nc(Cl)c2ncn(Cc3ccc(COc4cccc(OCc5ccc(Cn6cnc7c(Cl)nc(Cl)nc76)cc5)c4)cc3)c2n1"
Result: 91.4 µM

Query: Proceed to CCOP(=O)(OCC)C(NC(c1ccccc1)c1ccccc1)c1cccc2ccccc12 (centres undefined)
Result: 16.2 µM

---

System: PC-3 prostate
assay text: NCI tumour cell line growth inhibition, 48 h
Task for the reader: assign each of the following molecules its reported GI50.

Query: Looking for the measured GI50 of "Clc1nc(Cl)c2c(ncn2C/C=C\Cn2cnc3c(Cl)nc(Cl)nc32)n1" , can you help?
Result: 2310 nM

Query: Proceed to "Cc1nc2sc(C(=O)Nc3ccccc3)c(N)c2cc1C(=O)/C=C/c1ccccc1"
Result: 2140 nM

Query: Proceed to "COc1ccc(-c2cncn2-c2ccc(OC)cc2)cc1"
Result: 30000 nM

Query: Proceed to COc1ccc2c(c1)OC(N(C(C)=O)C(C)=O)=C(C#N)C2c1ccc(F)cc1 (stereo not given)
Result: 2200 nM

Query: Proceed to "c1cnc2[nH]cc(-c3csc(-c4cn(CCCCN5CCOCC5)c5ccccc45)n3)c2c1"
Result: 1590 nM

---

System: SK-MEL-2 melanoma
assay text: NCI tumour cell line growth inhibition, 48 h
endpoint label: TGI

Query: Notebook entry, SK-MEL-2 melanoma assay: TGI of "COc1ccc(CCNC(=O)Cc2cc(OC)c(OC)cc2CO)cc1OC" = ?
Result: > 100 µM

Query: Proceed to N#CC1(C#N)NC(c2ccsc2)C(C#N)(C#N)NC1c1ccsc1 (centres undefined)
Result: > 100 µM

Query: Proceed to "CCCCCCCCCc1cc(=O)c2ccc(O)cc2o1"
Result: > 100 µM

Query: Proceed to COc1cccc(C(=O)C2C(=O)N(C)CCc3ccccc32)c1OC (centres undefined)
Result: > 100 µM

Query: Proceed to COc1ccc(CC2NC(=O)/C=C/CC(C(C)C3OC3c3ccccc3)OC(=O)C(CC(C)C)OC(=O)C(C)CNC2=O)cc1Cl (centres undefined)
Result: > 0.1 µM

Query: Proceed to "Nc1nc(Cl)cc(Nc2cc(Cl)cc(Cl)c2)n1"
Result: 38.1 µM

Query: Proceed to "COc1ccc2c3c(c(=O)n(C)c2c1OC)C=CC(C)(C)O3"
Result: > 100 µM

Query: Proceed to "COCCOCCOC1=C(Cl)C(=O)c2c(O)ccc(O)c2C1=O"
Result: 4.86 µM

Query: Proceed to "COc1ccc(-c2cc(-c3cc(OC)c(OC)c(OC)c3)cc(-c3cc4ccccc4oc3=O)n2)cc1"
Result: 62.2 µM

Query: Proceed to CC(=O)OC1c2ccccc2CCCCCCC12OCCO2 (centres undefined)
Result: > 100 µM

Query: Proceed to "Oc1ccc(CCCCCCc2ccc(O)cc2)cc1"
Result: 35.5 µM

Query: Proceed to "CCCCn1cnc2c(SC)ncnc21"
Result: > 100 µM

Query: Proceed to "Fc1ccc2[nH]c3c(NCCCN4CCOCC4)ncnc3c2c1"
Result: > 100 µM

Query: Proceed to "C1=C\CCCCN2C[C@H]3CCCC/C=C\CCCCN4CC[C@@H]([C@H](CCCCCC/1)C4)[C@H](C3)C2"
Result: 4.56 µM

Query: Proceed to O=C1C2=C(c3ccccc31)C(c1ccccc1)NC(=S)N2 (centres undefined)
Result: > 100 µM

Query: Proceed to "COc1ccc(O)c(C#N)c1C#N"
Result: > 100 µM

Query: Proceed to "N/C(=N/n1c(=S)[nH]c2ccccc2c1=O)Nn1c(=S)[nH]c2ccccc2c1=O"
Result: > 100 µM

Query: Proceed to C[C@H](O)C1CC(Cn2nnc3c(N)ncnc32)C1(C)C (some centres undefined)
Result: > 100 µM

Query: Proceed to CCCCOC(=O)C(O)Cc1ccoc1 (centres undefined)
Result: > 100 µM

Query: Proceed to "CCO/N=[N+](\[O-])N(CC)CC"
Result: > 100 µM

Query: Proceed to "O=C(CSC(=S)N1CCOCC1)Nc1nc2c(s1)CCCC2"
Result: > 100 µM

Query: Proceed to "COc1nc2nccc-2c2occn12"
Result: > 100 µM

Query: Proceed to "Cc1ccc(S(N)(=O)=O)cc1"
Result: > 1000 µM

Query: Proceed to N#CC(C(=O)C(=O)NCCCNC(=O)C(=O)C(C#N)c1ccccc1)c1ccccc1 (centres undefined)
Result: > 100 µM
